Quick reference: IC50 of the listed items.
experimentalTarget: Replicase polyprotein 1ab (Severe acute respiratory syndrome coronavirus 2)
testDetails: SARS-CoV-2 Mpro enzyme assay
Experimental: The activity of SARS-Cov-2 Mpro was determined in a Fluorescence Resonance Energy Transfer (FRET)-based enzymatic assay using FRET Substrate Dabcyl-KTSAVLQSGFRKM-E(Edans)-Amide. […] The reaction was incubated for 1 h and the resulting fluorescent intensity was measured at Ex=360 nm/Em=490 nm at 30 °C using a SPARK 20M plate reader (Tecan). Boceprevir was used a reference standard compound. pICso and pKi were determined using 4PL GraphPad Prism and data were represented as a mean n=2± SD.
Express the result in nM but write the number alone.

Example compounds with recorded IC50:
NC(=O)C(=O)C(C[C@@H]1CCNC1=O)NC(=O)[C@H](CC1CC1)NC(=O)OCc1ccccc1 (some centres undefined) [WO2022129953, Example 3]; 25
CC[C@@H](CC(=O)N[C@@H](CC1CC1)C(=O)NC(C[C@@H]1CCNC1=O)C(=O)C(=O)NC1CC1)c1ccccc1 (some centres undefined) [WO2022129953, Example 32]; 13
O=C(N[C@@H](CC1CC1)C(=O)NC(C[C@@H]1CCNC1=O)C(=O)C(=O)NC1CC1)OCc1ccccc1 (some centres undefined) [WO2022129953, Example 29]; 16
C[C@@H](CC(=O)N[C@@H](CC(C)(C)C)C(=O)NC(C[C@@H]1CCNC1=O)C(=O)C(=O)NC1CC1)c1ccccc1 (some centres undefined) [WO2022129953, Example 12]; 16
NC(=O)C(=O)C(CC1CC1)NC(=O)[C@H](CC1CC1)NC(=O)/C=C/c1ccccc1 (some centres undefined) [WO2022129953, Example 6]; 5010

Query (compound): CCNC(=O)C(=O)C(C[C@@H]1CCNC1=O)NC(=O)[C@H](CC1CC1)NC(=O)/C=C/c1ccc(Cl)cc1Cl (some centres undefined) [WO2022129953, Example 24] ; field requested: IC50 13

Request: CC(C)(C)C[C@H](NC(=O)/C=C/c1ccc(Cl)cc1F)C(=O)NC(C[C@@H]1CCNC1=O)C(=O)C(=O)NC1CC1 (some centres undefined) [WO2022129953, Example 11] 7.94

Request: NC(=O)C(=O)C(C[C@@H]1CCNC1=O)NC(=O)[C@H](CC1CC1)NC(=O)/C=C/c1ccccc1 (some centres undefined) [WO2022129953, Example 2] 20

Request: CC(C)C[C@H](NC(=O)/C=C/c1ccc(Cl)cc1F)C(=O)NC(C[C@@H]1CCNC1=O)C(=O)C(N)=O (some centres undefined) [WO2022129953, Example 18] 13
